These measurements were taken from the OligoGym collection.

molecular target: KCNAB2; test: pooled miR-30 sensor sort-seq; sequence = guide strand; conditions: shRNA
So basically: sensor-assay potency score (higher = more potent) at -0.8 or higher? That is Fulfilled. Lower than -0.8? That is Not fulfilled.

{"columns": ["SEQUENCE_TEXT", "DISCRETE_LABEL"],
 "data": [
  ["TTTCAGACCTTCGATTATGTGC", "Fulfilled"],
  ["AATACTATCAATCTCGTGGATA", "Not fulfilled"],
  ["TTGGTGGTGATGACGAGGCTGG", "Fulfilled"],
  ["TAGACTTCTGCTGTATCGAAGA", "Fulfilled"],
  ["ATGATCTCCATGGAGCTCCAGC", "Not fulfilled"]
]}

Ask: Reported sensor-assay potency score (higher = more potent) at or above -0.8? TGACAGTTTCGGAAGGACCTGT
Reply: Fulfilled

* * *

biological target: KCNMB2; test: pooled miR-30 sensor sort-seq; sequence = guide strand; details: shRNA
This section presents sequences with their documented sensor-assay potency score (higher = more potent) values.
Write the value as a bare number.

A selection of reference data follows.
{"columns": ["SEQUENCE_TEXT", "VALUE_MEASURED"],
 "data": [
  ["TTAGGATAACACTCTTCTGGTT", -1.15],
  ["TTTTGTTAGGATAACACTCTTC", -0.026],
  ["TAACACTCTTCTGGTTTCCTTC", -0.332],
  ["TTTATTGTCTCTTCTGTGTGGT", 0.74],
  ["TAGGATAACACTCTTCTGGTTT", 0.203]
]}

Ask: What sensor-assay potency score (higher = more potent) value was documented for this sequence, TTCCATGACAACATTCACCAGG ?
Reply: -0.0986

* * *

biological target: RDH8; assay: pooled miR-30 sensor sort-seq; sequence = guide strand; conditions: shRNA
This section presents sequences with their documented sensor-assay potency score (higher = more potent) values.
Write the value as a bare number.

A selection of reference data follows.
{"columns": ["SEQUENCE_TEXT", "VALUE_MEASURED"],
 "data": [
  ["TTGGTGTCAAAGACATTCTGCA", 0.0313],
  ["ATGAAGAGTCTGTTCATCCTTT", 0.345],
  ["TTCTGCATGGCAGCAAGGCTGA", -1.12],
  ["ATCGTTGAAGATGACACCCTGC", 0.0457],
  ["TTGAGCGTGGTCAGCGGCGAGT", -1.34]
]}

Ask: // fetch RDH8 sensor-assay potency score (higher = more potent) for TAGCGGATGTTGGTCTGTCGGC
Reply: -1.33

Ask: And ATCACTGCACACGTCCAGCTGG ?
Reply: -0.715

Ask: And TCAAACTCGGTGACCACGGGGC ?
Reply: -0.118

Ask: And TTGACGAGACGGACAGCTCCGA ?
Reply: -0.0536

* * *

target: PARN; assay: pooled miR-30 sensor sort-seq; sequence = guide strand; settings: shRNA
So basically: sensor-assay potency score (higher = more potent) at -0.05 or higher? That is Y. Lower than -0.05? That is N.

Use these answered entries as a reference point.
{"columns": ["SEQUENCE_TEXT", "DISCRETE_LABEL"],
 "data": [
  ["TAAACTTCTTTTGATCCTCAGG", "N"],
  ["TAGAAGTTAAATGACTTCGTTA", "N"],
  ["TTTATTAAAATCAAATCCCTGG", "Y"],
  ["TAGGCTGCAAGTCTGGTCCTTC", "Y"]
]}

Ask: Reported sensor-assay potency score (higher = more potent) at or above -0.05? TTCTTCTTCATCTACTTTGCTG
Reply: N

Ask: And TTCATGACAGCCTACAACCGTG ?
Reply: N

Ask: And TTTCTCTTTCCTACTGTGCTGG ?
Reply: Y

* * *

target: PALB2; test: pooled miR-30 sensor sort-seq; sequence = guide strand; details: shRNA
So basically: sensor-assay potency score (higher = more potent) at -0.7 or higher? That is class 1. Lower than -0.7? That is class 0.

{"columns": ["SEQUENCE_TEXT", "DISCRETE_LABEL"],
 "data": [
  ["TAACATAATATTCTGCAGGAAA", "class 0"]
]}

Ask: Reported sensor-assay potency score (higher = more potent) at or above -0.7? TACAGCATCACACCCACGCTGA
Reply: class 1

Ask: And TTGAATAAATAATTTTTCGTGC ?
Reply: class 1

Ask: And TTGTTCTAACATAATATTCTGC ?
Reply: class 1

Ask: And TTCTTGAACTTGGTTGTCCTGT ?
Reply: class 1

Ask: And TATAGCTTTATTTACAAGGAGG ?
Reply: class 0

* * *

target: ST6GAL2; test: pooled miR-30 sensor sort-seq; sequence = guide strand; conditions: shRNA
This section presents sequences with their documented sensor-assay potency score (higher = more potent) values.

{"columns": ["SEQUENCE_TEXT", "VALUE_MEASURED"],
 "data": [
  ["TACACGTGCACCTCTCTGCACA", -0.913]
]}

Ask: What sensor-assay potency score (higher = more potent) value was documented for this sequence, TTTATTCCCAACATCTTTCTCA ?
Reply: 0.384

Ask: And AAAGTAGTCGTCATCCTCCGGG ?
Reply: 0.386

Ask: And TTGAATCTTCTCTTTAGTGTTC ?
Reply: 0.135

Ask: And TTCTCTTTAGTGTTCTCCTGGA ?
Reply: 0.105

Ask: And TGCGTCGTAGTACAGCTCGTGG ?
Reply: -0.842

* * *

target: P2RY12; assay: pooled miR-30 sensor sort-seq; sequence = guide strand; conditions: shRNA
ASSAY_ENDPOINT: sensor-assay potency score (higher = more potent)
Write the value as a bare number.

Ask: What sensor-assay potency score (higher = more potent) value was documented for this sequence, TTAACTTAGTTGCTTCTTCGTC ?
Reply: -0.236

Ask: And TAATTTACTATTTCATGCCAGA ?
Reply: -0.703

Ask: And TTGACGTTCACCTTTTTCCTGG ?
Reply: 0.386

* * *

This section presents sequences with their documented sensor-assay potency score (higher = more potent) values.
target: FHOD1; assay: pooled miR-30 sensor sort-seq; sequence = guide strand; settings: shRNA
Write the value as a bare number.

{"columns": ["SEQUENCE_TEXT", "VALUE_MEASURED"],
 "data": [
  ["TTGTAGATGCTCCTCTCGCTGG", -0.582]
]}

Lab note: next sequence to report on.
Ask: What sensor-assay potency score (higher = more potent) value was documented for this sequence, TTTGTAGATGCTCCTCTCGCTG ?
Reply: -1.11

* * *

target: GNLY; test: pooled miR-30 sensor sort-seq; sequence = guide strand; settings: shRNA
So basically: sensor-assay potency score (higher = more potent) at -1 or higher? That is yes. Lower than -1? That is no.

Ask: Reported sensor-assay potency score (higher = more potent) at or above -1? TTTTGGACTATCGTCAGACAGG
Reply: no

Ask: And TTCAGTTTTTGGACTATCGTCA ?
Reply: yes

Ask: And TTTCTCCTCATCACGCAGGTGG ?
Reply: yes

Ask: And TTGGAAACACTTCTCTGGGTGG ?
Reply: yes

Ask: And ATTGGAAACACTTCTCTGGGTG ?
Reply: yes

Ask: And TTGCCAGGTCGTAGTACTCAGG ?
Reply: no

Ask: And TTTTGGTCAACAGGTCACCCTG ?
Reply: no

* * *

target: KCNN2; experiment: pooled miR-30 sensor sort-seq; sequence = guide strand; conditions: shRNA
So basically: sensor-assay potency score (higher = more potent) at -1 or higher? That is yes (1). Lower than -1? That is no (0).

Use these answered entries as a reference point.
{"columns": ["SEQUENCE_TEXT", "DISCRETE_LABEL"],
 "data": [
  ["TAGCTTGCAGGAATTTTCGTTG", "yes (1)"],
  ["ATTGATATCAACCACATCGCTC", "yes (1)"],
  ["TTGATGAATAGCTTGCAGGAAT", "yes (1)"],
  ["TTGTCGTAGCTCTCCATCTGAG", "no (0)"]
]}

Turning now to a further record.
Ask: Reported sensor-assay potency score (higher = more potent) at or above -1? TTCTTAATTGATGAATAGCTTG
Reply: no (0)

* * *

molecular target: KRTAP13-1; assay: pooled miR-30 sensor sort-seq; sequence = guide strand; conditions: shRNA
So basically: sensor-assay potency score (higher = more potent) at -0.9 or higher? That is 1. Lower than -0.9? That is 0.

{"columns": ["SEQUENCE_TEXT", "ASSAYED_SYSTEM", "DISCRETE_LABEL"],
 "data": [
  ["TCCACATAGGATGTCTGGCAGC", "KRTAP13-1", 0],
  ["TAGAATAAGAGGCTAATTCTTT", "KRTAP13-1", 1]
]}

Turning now to a further record.
Ask: Reported sensor-assay potency score (higher = more potent) at or above -0.9? TCTGTAGCAAGAAGACTGGCAG
Reply: 1
